tested-target: recombinant full-length human prolyl endopeptidase (PREP) (Homo sapiens, UniProt P48147)
Construct: To recombinant full-length human prolyl endopeptidase (PREP, R&D-Systems, 4308-SE)
assay-info: Biochemical human prolyl endopeptidase (PREP) assay with fluorescently labelled substrate
particulars: substrate Z-Gly-Pro-AMC 50 μM, 32° C., 60 min; some as mean values from multiple independent determinations
measurement-type: IC50 (nM)
Give just the number in nM; leave the unit off.

Consider the compound shown here: O=C([C@@H]1CCCc2nn(Cc3ccc(C(F)(F)F)nc3)c(=O)n21)N1CC[C@H](O)C1 [Example 425] What is its recorded IC50?
35

Consider the compound shown here: Cn1nc(Cn2nc3n(c2=O)[C@H](C(=O)N2CCC(F)(F)C2)CCC3)c2cccnc21 [Example 413] What is its recorded IC50?
1.9

Consider the compound shown here: CC1Cc2nn(Cc3ccnc(C(F)(F)F)c3F)c(=O)n2C(C(=O)N2CC(F)C2)C1 (racemic) [Example 335] What is its recorded IC50?
1.05

Consider the compound shown here: O=C([C@@H]1CCCc2nn(Cc3ccc(C(F)F)nc3)c(=O)n21)N1CCC(F)(F)C1 [Example 208] What is its recorded IC50?
15

Consider the compound shown here: Cc1ccc(Cn2nc3n(c2=O)[C@H](C(=O)N2CCC(O)(C(F)(F)F)C2)CCC3)cc1 (mixture of isomers) [Example 152] What is its recorded IC50?
38

Consider the compound shown here: O=C([C@@H]1CCCc2nn(Cc3ccc(C(F)(F)F)c(Cl)c3)c(=O)n21)N1CCC(F)(F)C1 [Example 460] What is its recorded IC50?
0.17

Consider the compound shown here: Cc1ccc(Cn2nc3n(c2=O)C(C(=O)N2CC(O)C2)CCC3)cc1 (racemic) [Example 120] What is its recorded IC50?
9.6

###

tested-target: recombinant full-length human prolyl endopeptidase (PREP) (Homo sapiens)
Construct: To recombinant full-length human prolyl endopeptidase (PREP, R&D-Systems, 4308-SE)
Sequence (P48147 1-710): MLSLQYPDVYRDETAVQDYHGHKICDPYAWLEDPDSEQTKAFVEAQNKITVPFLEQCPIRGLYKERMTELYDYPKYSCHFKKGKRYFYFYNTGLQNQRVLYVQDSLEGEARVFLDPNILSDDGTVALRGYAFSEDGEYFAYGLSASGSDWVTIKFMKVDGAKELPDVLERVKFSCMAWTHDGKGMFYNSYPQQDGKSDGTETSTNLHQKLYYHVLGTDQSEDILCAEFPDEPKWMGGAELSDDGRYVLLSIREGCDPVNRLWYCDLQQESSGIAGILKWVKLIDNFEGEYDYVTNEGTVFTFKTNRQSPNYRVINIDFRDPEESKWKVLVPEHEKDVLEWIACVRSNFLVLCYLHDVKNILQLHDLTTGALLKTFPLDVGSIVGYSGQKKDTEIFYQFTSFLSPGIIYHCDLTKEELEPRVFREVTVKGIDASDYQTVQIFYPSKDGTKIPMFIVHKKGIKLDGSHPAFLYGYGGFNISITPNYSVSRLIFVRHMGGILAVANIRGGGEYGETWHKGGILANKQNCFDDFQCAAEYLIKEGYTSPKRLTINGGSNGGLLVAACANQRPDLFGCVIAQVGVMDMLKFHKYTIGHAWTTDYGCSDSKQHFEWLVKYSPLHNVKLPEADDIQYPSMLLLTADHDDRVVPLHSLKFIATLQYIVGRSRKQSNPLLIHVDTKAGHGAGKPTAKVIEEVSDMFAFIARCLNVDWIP
assay-info: Biochemical human prolyl endopeptidase (PREP) assay with fluorescently labelled substrate
particulars: substrate Z-Gly-Pro-AMC 50 μM, 32° C., 60 min; some as mean values from multiple independent determinations
Note to self: IC50 under 1 nM means Met, ties and anything higher get Not met.

Known results for molecules:
> print(dat)
                                   molecule  discrete.label
1  CC(c1ccc(C(F)(F)F)nc1)n1nc2n(c1=O)[C@H](C(=O)N1CC[C@H](F)C1)CCC2 (single isomer, unassigned) [Example 217]         Not met
2  O=C(C1CC(C(F)(F)F)Cc2nn(Cc3cncc(Cl)c3)c(=O)n21)N1C[C@@H](F)[C@@H](F)C1 (single isomer, unassigned) [Example 269]         Not met
3  O=C([C@@H]1CCCc2nn(Cc3ncccc3Cl)c(=O)n21)N1CC[C@H](F)C1         Not met
4  O=C([C@@H]1CCCc2nn(Cc3ccc(F)cc3Cl)c(=O)n21)N1CC(F)C1             Met

Criterion: IC50 strictly below 1 nM. Is it met by CC1CCC(C(=O)N2C[C@@H](F)[C@@H](F)C2)n2c1nn(Cc1ccc(F)c(Cl)c1)c2=O (mixture of isomers) ?
Met

Criterion: IC50 strictly below 1 nM. Is it met by N#C[C@@H]1CCCN1C(=O)[C@@H]1CCCc2nn(Cc3ccc(C(F)(F)F)nc3)c(=O)n21 ?
Met

Criterion: IC50 strictly below 1 nM. Is it met by Cc1ccc(Cn2nc3n(c2=O)[C@H](C(=O)N2CC(C)(F)C2)CCC3)cc1 ?
Met

###

tested-target: recombinant full-length human prolyl endopeptidase (PREP) (Homo sapiens)
Construct: To recombinant full-length human prolyl endopeptidase (PREP, R&D-Systems, 4308-SE)
assay-info: Biochemical human prolyl endopeptidase (PREP) assay with fluorescently labelled substrate
particulars: substrate Z-Gly-Pro-AMC 50 μM, 32° C., 60 min; some as mean values from multiple independent determinations
Listed here: items and their measured pIC50.
# pIC50 = -log10(concentration in molar units)

// below: answered compounds
> print(dat)
                                   compound                             tested.target  result.value
1  O=C(C1CCc2nn(Cc3ccc(Cl)nc3)c(=O)n21)N1CC(F)C1 (racemic) [Example 169]  recombinant full-length human prolyl endopeptidase (PREP) (Homo sapiens)          7.50
2  O=C(C1CCCc2nn(Cc3ccc(OC(F)F)cc3)c(=O)n21)N1CCCC1 (racemic) [Example 7]  recombinant full-length human prolyl endopeptidase (PREP) (Homo sapiens)          8.10
3  O=C(C1CC(C(F)(F)F)Cc2nn(Cc3ccnc(C(F)(F)F)c3F)c(=O)n21)N1C[C@@H](F)[C@@H](F)C1 (single isomer, unassigned) [Example 262]  recombinant full-length human prolyl endopeptidase (PREP) (Homo sapiens)          6.10
4  O=C(C1C(C(F)(F)F)CCc2nn(Cc3ccc(C(F)(F)F)nc3)c(=O)n21)N1CC(F)C1 (single isomer, unassigned) [Example 305]  recombinant full-length human prolyl endopeptidase (PREP) (Homo sapiens)          7.85
5  Cc1ccc(Cn2nc3n(c2=O)C(C(=O)N2CCOCC2)CCC3)cc1 (racemic) [Example 159]  recombinant full-length human prolyl endopeptidase (PREP) (Homo sapiens)          7.80
6  Cc1ccc(Cn2nc3n(c2=O)C(C(=O)N2CCS(=O)(=O)C2)CCC3)cc1 (single isomer, unassigned) [Example 142]  recombinant full-length human prolyl endopeptidase (PREP) (Homo sapiens)          8.59

Consider the compound shown here: COc1ccc(Cn2nc3n(c2=O)[C@H](C(=O)N2CCC[C@H]2C#N)CCC3)cn1 [Example 432] What is its recorded pIC50?
9.89

###

Listed here: items and their measured pIC50.
tested-target: recombinant full-length human prolyl endopeptidase (PREP) (Homo sapiens, UniProt P48147)
Construct: To recombinant full-length human prolyl endopeptidase (PREP, R&D-Systems, 4308-SE)
assay-info: Biochemical human prolyl endopeptidase (PREP) assay with fluorescently labelled substrate
particulars: substrate Z-Gly-Pro-AMC 50 μM, 32° C., 60 min; some as mean values from multiple independent determinations
# pIC50 = -log10(concentration in molar units)

> print(dat)
                                   compound  measurement.type  result.value
1  Cc1cccc(Cn2nc3n(c2=O)C(C(=O)N2CCCC2)CCC3)c1 (racemic)             pIC50          9.00
2  O=C([C@@H]1CCCc2nn(Cc3cc(F)c(F)cc3F)c(=O)n21)N1CC[C@H](F)C1             pIC50          9.49
3  O=C(C1CCCc2nn(Cc3ccc(Cl)nc3)c(=O)n21)N1CC[C@H](F)C1 (mixture of isomers)             pIC50          9.43
4  Cc1noc(-c2ccc(Cn3nc4n(c3=O)C(C(=O)N3CCCC3)CCC4)cc2)n1 (racemic)             pIC50          7.41

Consider the compound shown here: Cc1ccc(Cn2nc3n(c2=O)C(C(=O)N2CC(O)(C(F)(F)F)C2)CCC3)cc1 (racemic) What is its recorded pIC50?
6.97

Consider the compound shown here: Cc1ccc(Cn2nc3n(c2=O)[C@H](C(=O)N2CC[C@H](C(F)F)C2)CCC3)cc1 What is its recorded pIC50?
7.88

Consider the compound shown here: CCn1nc(C(F)(F)F)cc1Cn1nc2n(c1=O)[C@H](C(=O)N1C[C@@H](F)[C@@H](F)C1)CCC2 What is its recorded pIC50?
8.92

Consider the compound shown here: Cc1ccc(C(F)(F)Cn2nc3n(c2=O)[C@H](C(=O)N2CC[C@H](F)C2)CCC3)cc1 What is its recorded pIC50?
9.02

Consider the compound shown here: O=C([C@@H]1CCCc2nn(Cc3ccc(F)cc3)c(=O)n21)N1CC(F)C1 What is its recorded pIC50?
9.24

Consider the compound shown here: O=C(C1CC(C(F)(F)F)Cc2nn(Cc3ccc(Cl)nc3)c(=O)n21)N1CC[C@@H](F)C1 (single isomer, unassigned) [Example 246] What is its recorded pIC50?
8.89

Consider the compound shown here: O=C(C1CC(C(F)(F)F)Cc2nn(Cc3ccc(Cl)nc3)c(=O)n21)N1CC[C@H](F)C1 (mixture of isomers) [Example 242] What is its recorded pIC50?
8.70

Consider the compound shown here: COc1ccc(Cn2nc3n(c2=O)[C@H](C(=O)N2CCC(F)(F)C2)CCC3)nc1 What is its recorded pIC50?
8.26

Consider the compound shown here: O=C([C@@H]1CCC(F)(F)c2nn(Cc3ccc(Cl)cn3)c(=O)n21)N1CC[C@H](F)C1 What is its recorded pIC50?
9.27

Consider the compound shown here: O=C(C1CCCc2nn(Cc3ccnc(Cl)c3)c(=O)n21)N1CCCC1 (racemic) What is its recorded pIC50?
7.91

Consider the compound shown here: O=C([C@@H]1CCc2nn(Cc3ccc(C(F)(F)F)nc3)c(=O)n21)N1CCCC1 What is its recorded pIC50?
7.92
